# measured-on: recombinant human CK2 (Homo sapiens (Human))
# Sequence (P68400 whole entry): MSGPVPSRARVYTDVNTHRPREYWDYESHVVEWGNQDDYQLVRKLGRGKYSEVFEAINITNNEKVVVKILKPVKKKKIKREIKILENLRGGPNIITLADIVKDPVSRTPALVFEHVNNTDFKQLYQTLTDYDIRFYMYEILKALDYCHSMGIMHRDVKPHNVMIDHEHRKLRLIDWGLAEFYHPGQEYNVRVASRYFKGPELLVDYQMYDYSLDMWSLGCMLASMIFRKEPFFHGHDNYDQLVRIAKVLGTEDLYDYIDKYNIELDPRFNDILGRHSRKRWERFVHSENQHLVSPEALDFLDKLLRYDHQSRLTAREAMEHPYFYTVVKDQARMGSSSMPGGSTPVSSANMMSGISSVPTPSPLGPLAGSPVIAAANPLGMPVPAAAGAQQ
# Sequence (P67870 whole entry partner): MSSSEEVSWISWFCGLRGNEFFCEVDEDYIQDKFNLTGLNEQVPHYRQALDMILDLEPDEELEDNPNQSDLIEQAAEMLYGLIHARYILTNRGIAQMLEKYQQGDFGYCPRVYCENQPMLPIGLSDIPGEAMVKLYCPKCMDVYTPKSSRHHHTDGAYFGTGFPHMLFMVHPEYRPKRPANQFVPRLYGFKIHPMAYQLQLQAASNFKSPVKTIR
# test-description: CK2 assay (cell-free, 33P-ATP filter plate)
# Format: biochemical
# details: 500 nM compound, cell-free assay; read-out: CK2: % inh 500 nM
readout-label: inhibition at 0.5 µM (%)

molecule	measured-on	readout-number
O=C(O)c1ccc2c(c1)nc(NC1CCCC1)c1ccncc12	recombinant human CK2 (Homo sapiens (Human))	101
NC(=O)c1ccc2c(c1)nc(Nc1cccc(Cl)c1)c1ccncc12 [drawing 1674]	recombinant human CK2 (Homo sapiens (Human))	91.2
NC(=O)c1ccc2c(c1)nc(Nc1ccc(F)c(Cl)c1)c1ccncc12	recombinant human CK2 (Homo sapiens (Human))	66.1
CN1CCC(Nc2nc3cc(-c4nnn[nH]4)ccc3c3sccc23)CC1	recombinant human CK2 (Homo sapiens (Human))	1.28
CN1CCCCC1CNc1nc2cc(C#N)ccc2c2ccsc12 (stereo not drawn)	recombinant human CK2 (Homo sapiens (Human))	5.51
O=C(O)c1ccc2c(c1)nc(NC1CC1)c1nc(Nc3ccc(F)c(F)c3)ncc12	recombinant human CK2 (Homo sapiens (Human))	96.3
COC(=O)c1cccc2c1[nH]c(=O)c1ccncc12	recombinant human CK2 (Homo sapiens (Human))	16.7
CC(C)(C)OC(=O)NCCCNc1nc2cc(C#N)ccc2c2sccc12	recombinant human CK2 (Homo sapiens (Human))	-11.5

P. COCCNC(=O)c1ccc2c(c1)nc(NCCN(C)C)c1ccsc12
Q. CN1CCCCC1CNc1nc2cc(-c3nnn[nH]3)ccc2c2sccc12 (stereo not drawn)
[in] Could you tell me which of P and Q has the lower inhibition at 0.5 µM reading? Your answer should be the label of the entry you select.
[out] P
(P: -12.9%, Q: 32.8%)
